Molecular target: T1, hNgR1-his (human, UniProt Q9BZR6 27-447, limits assumed)
T1 construct: Soluble antigen flowed over antibodies captured on Protein A chips; also called antigen protein (hNgR1-his); the antigen; not shown: histidine tag
T1 sequence (looked up): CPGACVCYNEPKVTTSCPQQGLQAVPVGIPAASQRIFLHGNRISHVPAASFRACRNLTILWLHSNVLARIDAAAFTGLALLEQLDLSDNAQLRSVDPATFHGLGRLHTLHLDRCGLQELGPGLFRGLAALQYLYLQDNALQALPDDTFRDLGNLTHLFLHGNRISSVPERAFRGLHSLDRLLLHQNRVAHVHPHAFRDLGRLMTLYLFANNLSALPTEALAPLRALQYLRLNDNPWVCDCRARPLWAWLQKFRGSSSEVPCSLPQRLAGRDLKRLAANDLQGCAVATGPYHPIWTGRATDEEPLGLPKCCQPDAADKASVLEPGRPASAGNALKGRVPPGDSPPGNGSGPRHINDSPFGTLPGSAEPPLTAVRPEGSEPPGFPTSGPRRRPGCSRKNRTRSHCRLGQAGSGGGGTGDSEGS
Assay: SPR, Biacore T200; IgG1 captured on Protein A chip, hNgR1-his flowed at different concentrations
# Lookup of reported Kd keyed by entry
Include the unit right after the number.

Completed entries (count: 2):
G8 antibody (antibody, human IgG1, kappa, V domains shown, Optimized from CSA123) VH: QMQLVQSGAEVKKPGASVKVSCKVSGYPLSELSIHWVRQAPGKGLEWMGGFDSEDDETVYAQKFQGRVTLTDDTSTDTAYMELSSLRSEDTAVYYCARDLGYLTSGNYYDAFGIWGRGTMITVSS VL: DIQMTQSPSSVSASVGDRVTITCRASQDINRWLAWYQQKPGKAPKLLIYAASRLQSGVPLRFSGSGSGTDFTLTINSLQPEDSATYYCQQTNNFPRTFGQGTRLEIKR : 4.15 nM
D11 antibody (antibody, human IgG1, kappa, V domains shown, Optimized from CSA123) VH: QMQLVQSGAEVKKPGASVKVSCKVSGYTLSELSIHWVRQAPGKGLEWMGGFDSEDDETVYAQKFQGRVTLTDDTSTDTAYMELSSLRSEDTAVYYCARDLGYLTSGNYYDAFDFWGRGTMITVSS VL: DIQMTQSPSSVSASVGDRVTITCRASQDINRWLAWYQQKPGKAPKLLIYAASRLQSGVPLRFSGSGSGTDFTLTINSLQPEDSATYYCQQTNNFPRTFGQGTRLEIKR : 5.33 nM

Attention now turns to another entry.
[Q] Field request: Kd | item: CSA123 antibody (antibody, human IgG1, kappa, V domains shown, also called anti-NgR1 antibody CSA123) VH: QMQLVQSGAEVKKPGASVKVSCKVSGYTLSELSIHWVRQAPGKGLEWMGGFDPEDDETVYAQKFQGRVTLTDDTSTDTAYMELSSLRSEDTAVYYCARDLGYLTSGNYYDAFDIWGRGTMITVSS VL: DIQMTQSPSSVSASVGDRVTITCRASQDINRWLAWYQQKPGKAPKLLIYAASRLQSGVPLRFSGSGSGTDFTLTINSLQPEDSATYYCQQTNNFPRTFGQGTRLEIKR
[A] 31.5 nM

Data credit: patent EP4628892A1
